- Target System: T1, FHHDbf2-H6Mob1TM9 (Saccharomyces cerevisiae, UniProt P22204+P40484)
- T1 construct: made in house; host or cells: Hi5 insect cells (baculovirus)
- T1 sequence (P22204 1-572): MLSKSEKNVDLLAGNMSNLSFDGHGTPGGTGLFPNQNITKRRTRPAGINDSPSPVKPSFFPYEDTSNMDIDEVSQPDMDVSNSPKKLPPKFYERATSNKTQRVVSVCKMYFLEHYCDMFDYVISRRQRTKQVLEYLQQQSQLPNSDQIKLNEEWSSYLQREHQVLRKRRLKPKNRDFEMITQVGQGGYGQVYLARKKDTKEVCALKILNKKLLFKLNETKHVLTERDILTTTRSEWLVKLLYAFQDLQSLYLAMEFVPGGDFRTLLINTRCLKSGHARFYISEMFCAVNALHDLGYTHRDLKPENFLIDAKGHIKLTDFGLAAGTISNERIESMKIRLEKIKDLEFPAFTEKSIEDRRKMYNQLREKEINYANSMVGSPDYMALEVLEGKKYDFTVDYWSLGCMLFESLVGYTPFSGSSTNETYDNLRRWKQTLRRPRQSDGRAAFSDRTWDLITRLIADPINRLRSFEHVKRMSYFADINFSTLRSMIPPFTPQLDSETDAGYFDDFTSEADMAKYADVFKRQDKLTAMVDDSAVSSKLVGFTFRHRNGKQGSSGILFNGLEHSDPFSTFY
- T1 sequence (P40484 1-314 partner): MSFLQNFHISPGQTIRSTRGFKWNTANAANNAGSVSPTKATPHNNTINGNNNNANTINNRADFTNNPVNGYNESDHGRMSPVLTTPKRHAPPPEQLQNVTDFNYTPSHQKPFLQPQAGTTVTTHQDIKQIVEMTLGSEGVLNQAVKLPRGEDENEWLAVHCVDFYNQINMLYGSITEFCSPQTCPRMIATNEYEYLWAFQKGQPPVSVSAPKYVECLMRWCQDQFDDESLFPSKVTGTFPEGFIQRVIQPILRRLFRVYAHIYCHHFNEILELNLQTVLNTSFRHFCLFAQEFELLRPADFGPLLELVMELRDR
- Method: Yeast proteome chip assay
- Format: biochemical
- Run Parameters: Table 3; GST fusion proteins on proteome chip, [γ-33P]ATP, chips in duplicate, computer analysis
Assay Endpoint: Slide Signal (after normalization)
Write the number on its own, no unit after it.

Consider YDR226W: GST fusion yeast protein on proteome chip (protein, UniProt P07170 3-222, looked up, GST tag, GST fusion yeast protein on proteome chip) Adenylate kinase: SSESIRMVLIGPPGAGKGTQAPNLQERFHAAHLATGDMLRSQIAKGTQLGLEAKKIMDQGGLVSDDIMVNMIKDELTNNPACKNGFILDGFPRTIPQAEKLDQMLKEQGTPLEKAIELKVDDELLVARITGRLIHPASGRSYHKIFNPPKEDMKDDVTGEALVQRSDDNADALKKRLAAYHAQTEPIVDFYKKTGIWAGVDASQPPATVWADILNKLGKD . Its measured Slide Signal (after normalization) is 3.1016
